FYI, the data here is from patent US20210255193A1.

Biological target: GABARAPL2 Gamma-aminobutyric acid receptor-associated protei (Homo sapiens)
Construct: isoTOP-ABPP experiments performed in cell lysates (in vitro); endogenous in cells; host or cells: soluble proteome of human cancer cell lines (MDA-MB-231, Ramos, Jurkat)
Sequence (P60520 1-116 limits assumed): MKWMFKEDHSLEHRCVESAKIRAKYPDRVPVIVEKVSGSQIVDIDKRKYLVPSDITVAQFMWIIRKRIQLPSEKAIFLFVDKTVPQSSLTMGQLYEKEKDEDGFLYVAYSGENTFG
Experiment: competitive isoTOP-ABPP
Assay type: binding
Conditions: P60520_K46; 50 uM, 231 sol, in vitro
In this section we review reported R value (DMSO/fragment) for probe 1 labeling values for a set of compounds.
observable: R value (DMSO/fragment) for probe 1 labeling

compound: Cn1cc(CC(=O)Oc2c(F)c(F)c(F)c(F)c2F)c2ccccc21
reported measurement: 0.8
//
compound: O=C(Oc1c(F)c(F)c(F)c(F)c1F)C(c1ccccc1)c1ccccc1 [fragment 20, Pentafluorophenyl 2,2-diphenylacetate]
reported measurement: 0.9
//
compound: O=C(Oc1c(F)c(F)c(F)c(F)c1F)c1cc(C(F)(F)F)cc(C(F)(F)F)c1
reported measurement: 0.8
//
compound: O=C(CCc1cn(-c2ccccc2)nc1-c1ccccc1)Oc1c(F)c(F)c(F)c(F)c1F
reported measurement: 1.2

###

Target: ETFA Electron transfer flavoprotein subunit alpha, mitochondrial (Homo sapiens)
Construct: isoTOP-ABPP experiments performed in cell lysates (in vitro); endogenous in cells; host or cells: soluble proteome of human cancer cell lines (MDA-MB-231; Ramos and Jurkat also prepared)
Sequence (P13804 20-333): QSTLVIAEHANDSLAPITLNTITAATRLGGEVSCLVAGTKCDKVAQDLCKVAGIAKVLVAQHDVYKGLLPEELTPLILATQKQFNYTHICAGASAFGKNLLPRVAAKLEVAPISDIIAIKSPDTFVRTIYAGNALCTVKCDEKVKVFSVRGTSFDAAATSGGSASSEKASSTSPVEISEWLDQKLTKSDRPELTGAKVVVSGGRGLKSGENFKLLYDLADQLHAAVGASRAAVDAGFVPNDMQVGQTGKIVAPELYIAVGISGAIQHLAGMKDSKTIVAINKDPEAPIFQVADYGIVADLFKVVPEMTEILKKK
Sequence (P38117 2-255 partner limits assumed): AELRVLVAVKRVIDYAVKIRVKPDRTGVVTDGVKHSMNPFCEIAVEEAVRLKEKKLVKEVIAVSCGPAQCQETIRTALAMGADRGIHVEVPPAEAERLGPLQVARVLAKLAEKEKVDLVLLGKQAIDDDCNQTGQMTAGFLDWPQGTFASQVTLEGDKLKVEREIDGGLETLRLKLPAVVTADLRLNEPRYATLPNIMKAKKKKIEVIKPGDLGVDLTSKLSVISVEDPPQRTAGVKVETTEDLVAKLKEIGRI
Experiment: competitive isoTOP-ABPP
Type: binding
Conditions: 50 uM, 231 sol, in vitro
# Lookup of reported isoTOP-ABPP reactivity ratio at lysine P13804_K139 keyed by entry
observable: isoTOP-ABPP reactivity ratio at lysine P13804_K139

molecule: O=C(CCc1cn(-c2ccccc2)nc1-c1ccccc1)Oc1ccc([N+](=O)[O-])cc1[N+](=O)[O-]
reported measurement: 0.8
//
molecule: Cn1cc(CC(=O)Oc2ccc([N+](=O)[O-])cc2[N+](=O)[O-])c2ccccc21
reported measurement: 20.0
//
molecule: O=C(Oc1c(F)c(F)c(F)c(F)c1F)C1CCN(C(=O)OCc2ccccc2)CC1
reported measurement: 1.1
//
molecule: COc1cc(CCC(=O)Oc2ccc([N+](=O)[O-])cc2[N+](=O)[O-])cc(OC)c1OC
reported measurement: 0.7
//
molecule: O=C(Oc1ccc([N+](=O)[O-])cc1[N+](=O)[O-])c1cc(C(F)(F)F)cc(C(F)(F)F)c1
reported measurement: 0.8
//
molecule: O=C(Oc1ccc([N+](=O)[O-])cc1[N+](=O)[O-])C(c1ccccc1)c1ccccc1 [fragment 30, 2,4-Dinitrophenyl 2,2-diphenylacetate]
reported measurement: 20.0

###

Listed here are compounds together with their documented isoTOP-ABPP ratio, lysine Q13033_K755.
Target: STRN3 Striatin-3 (Homo sapiens)
Construct: isoTOP-ABPP experiments performed in cell lysates (in vitro); endogenous in cells; host or cells: soluble proteome of human cancer cell lines (MDA-MB-231, Ramos, Jurkat)
Sequence (Q13033 whole entry): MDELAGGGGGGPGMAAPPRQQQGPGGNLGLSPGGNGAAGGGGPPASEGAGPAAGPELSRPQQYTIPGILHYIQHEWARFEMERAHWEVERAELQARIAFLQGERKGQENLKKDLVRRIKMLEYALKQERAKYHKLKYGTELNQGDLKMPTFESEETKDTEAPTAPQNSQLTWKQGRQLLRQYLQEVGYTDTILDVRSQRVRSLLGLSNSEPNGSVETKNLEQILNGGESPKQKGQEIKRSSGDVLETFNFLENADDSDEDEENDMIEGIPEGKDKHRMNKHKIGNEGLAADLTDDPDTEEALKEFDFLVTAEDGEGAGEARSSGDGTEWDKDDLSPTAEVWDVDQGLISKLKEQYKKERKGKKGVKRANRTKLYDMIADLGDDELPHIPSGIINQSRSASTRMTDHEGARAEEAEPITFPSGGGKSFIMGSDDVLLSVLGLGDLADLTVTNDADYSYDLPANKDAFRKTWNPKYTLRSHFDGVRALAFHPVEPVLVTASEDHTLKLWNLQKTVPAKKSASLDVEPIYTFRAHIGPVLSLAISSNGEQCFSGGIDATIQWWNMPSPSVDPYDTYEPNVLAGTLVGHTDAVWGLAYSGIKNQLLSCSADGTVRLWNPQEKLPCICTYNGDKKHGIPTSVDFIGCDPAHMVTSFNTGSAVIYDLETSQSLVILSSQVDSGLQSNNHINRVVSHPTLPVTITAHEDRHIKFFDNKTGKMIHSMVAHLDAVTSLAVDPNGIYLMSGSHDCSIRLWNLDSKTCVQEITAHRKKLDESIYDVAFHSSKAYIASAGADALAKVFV
Test: competitive isoTOP-ABPP
Format: binding
Details: 50 uM_231_sol_in vitro

compound: O=C(Oc1c(F)c(F)c(C(F)(F)F)c(F)c1F)c1cc(C(F)(F)F)cc(C(F)(F)F)c1 [fragment 47]
isoTOP-ABPP ratio, lysine Q13033_K755: 0.9

compound: O=C(Oc1c(F)c(F)cc(F)c1F)c1cc(C(F)(F)F)cc(C(F)(F)F)c1 [fragment 48]
isoTOP-ABPP ratio, lysine Q13033_K755: 1.2

compound: O=C(CCc1ccc2c(c1)OCO2)Oc1ccc([N+](=O)[O-])cc1[N+](=O)[O-] [fragment 45]
isoTOP-ABPP ratio, lysine Q13033_K755: 1.3

compound: NC(=O)c1cc(C(F)(F)F)cc(C(F)(F)F)c1 [fragment 51, reference compound]
isoTOP-ABPP ratio, lysine Q13033_K755: 0.9

compound: N#Cc1ccc(C(=O)Oc2ccc([N+](=O)[O-])cc2[N+](=O)[O-])cc1 [fragment 44, 2,4-Dinitrophenyl 4-cyanobenzoate]
isoTOP-ABPP ratio, lysine Q13033_K755: 1.0

compound: O=C(ON1C(=O)CCC1=O)c1cc(C(F)(F)F)cc(C(F)(F)F)c1 [fragment 46]
isoTOP-ABPP ratio, lysine Q13033_K755: 11.4

###

Target: TPMT Thiopurine S-methyltransferase (Homo sapiens, UniProt P51580)
Construct: isoTOP-ABPP experiments performed in cell lysates (in vitro); endogenous in cells; host or cells: soluble proteome of human cancer cell lines (MDA-MB-231; Ramos and Jurkat also prepared)
Sequence (P51580 whole entry): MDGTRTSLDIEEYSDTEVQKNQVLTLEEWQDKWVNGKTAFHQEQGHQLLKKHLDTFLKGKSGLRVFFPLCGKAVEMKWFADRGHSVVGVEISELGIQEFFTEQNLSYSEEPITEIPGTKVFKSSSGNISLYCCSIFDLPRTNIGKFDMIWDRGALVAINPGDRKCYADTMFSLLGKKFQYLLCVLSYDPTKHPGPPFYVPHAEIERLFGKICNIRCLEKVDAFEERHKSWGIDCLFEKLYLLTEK
Experiment: competitive isoTOP-ABPP
Type: binding
Set-up: key: R = MS1 peak area ratio, DMSO (heavy) / compound-treated (light)
Settings: 50 uM, 231 sol, in vitro
Method: In vitro covalent fragment treatment for isoTOP-ABPP. All compounds were made up as solutions in DMSO (100×) and were used at a final concentration of 50 μM for activated esters and 100 μM for guanidinylating agents. […] R value calculation and processing. The ratios of light and heavy MS1 peaks for each unique peptide were quantified with a CIMAGE software using default parameters (3 MS1 acquisitions per peak and signal to noise threshold set to 2.5). […]
# if value of isoTOP-ABPP reactivity ratio at lysine P51580_K32 reaches 2, tag 1; if it stays below, tag -1

compound: O=C(Oc1ccc([N+](=O)[O-])cc1[N+](=O)[O-])C(c1ccccc1)c1ccccc1 [fragment 30, 2,4-Dinitrophenyl 2,2-diphenylacetate]
class assignment: -1
//
compound: O=C(Oc1ccc([N+](=O)[O-])cc1[N+](=O)[O-])c1cc(C(F)(F)F)cc(C(F)(F)F)c1
class assignment: 1
//
compound: Cn1cc(CC(=O)Oc2ccc([N+](=O)[O-])cc2[N+](=O)[O-])c2ccccc21
class assignment: 1
//
compound: O=C(CCc1coc2cc(F)ccc2c1=O)Oc1c(F)c(F)c(F)c(F)c1F
class assignment: -1
//
compound: COc1cc(CCC(=O)Oc2ccc([N+](=O)[O-])cc2[N+](=O)[O-])cc(OC)c1OC
class assignment: 1
//
compound: O=C(CCc1cn(-c2ccccc2)nc1-c1ccccc1)Oc1ccc([N+](=O)[O-])cc1[N+](=O)[O-]
class assignment: -1
//
compound: O=C(Oc1c(F)c(F)c(F)c(F)c1F)C1CCN(C(=O)OCc2ccccc2)CC1
class assignment: -1

###

Target: RTN4 Reticulon-4 (Homo sapiens, UniProt Q9NQC3)
Construct: endogenous in cells; host or cells: MDA-MB-231 lysate
Sequence (Q9NQC3 whole entry): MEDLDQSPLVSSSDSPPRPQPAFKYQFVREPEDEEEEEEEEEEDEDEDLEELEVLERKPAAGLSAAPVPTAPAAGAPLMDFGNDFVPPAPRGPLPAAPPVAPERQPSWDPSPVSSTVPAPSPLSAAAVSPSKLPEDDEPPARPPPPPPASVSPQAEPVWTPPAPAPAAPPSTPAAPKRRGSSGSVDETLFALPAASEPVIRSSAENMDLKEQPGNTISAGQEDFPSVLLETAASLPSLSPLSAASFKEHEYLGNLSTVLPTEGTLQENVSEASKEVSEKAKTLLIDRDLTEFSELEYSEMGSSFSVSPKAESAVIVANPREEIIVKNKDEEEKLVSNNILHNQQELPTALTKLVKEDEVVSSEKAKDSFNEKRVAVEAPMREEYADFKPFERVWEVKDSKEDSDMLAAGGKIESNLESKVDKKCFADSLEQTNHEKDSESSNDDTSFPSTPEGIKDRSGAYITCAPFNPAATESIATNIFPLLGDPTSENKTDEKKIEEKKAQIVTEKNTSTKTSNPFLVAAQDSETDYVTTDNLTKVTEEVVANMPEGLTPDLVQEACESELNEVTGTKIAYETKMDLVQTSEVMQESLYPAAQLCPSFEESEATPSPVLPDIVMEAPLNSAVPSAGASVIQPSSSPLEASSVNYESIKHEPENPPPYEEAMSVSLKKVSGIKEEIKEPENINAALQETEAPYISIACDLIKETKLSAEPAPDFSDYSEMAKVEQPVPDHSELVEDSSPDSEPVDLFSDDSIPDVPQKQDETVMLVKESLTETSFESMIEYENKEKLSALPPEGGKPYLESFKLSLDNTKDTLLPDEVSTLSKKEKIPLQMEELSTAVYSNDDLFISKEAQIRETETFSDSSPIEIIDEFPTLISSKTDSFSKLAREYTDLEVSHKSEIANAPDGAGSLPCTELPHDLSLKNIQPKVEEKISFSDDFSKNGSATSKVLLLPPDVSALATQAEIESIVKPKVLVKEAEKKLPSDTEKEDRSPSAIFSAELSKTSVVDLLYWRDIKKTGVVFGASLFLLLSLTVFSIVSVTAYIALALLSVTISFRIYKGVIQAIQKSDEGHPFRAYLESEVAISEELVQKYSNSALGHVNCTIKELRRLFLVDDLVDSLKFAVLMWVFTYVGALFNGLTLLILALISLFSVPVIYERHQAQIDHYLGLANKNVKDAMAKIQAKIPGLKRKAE
Test: competitive isoTOP-ABPP
Format: binding
Conditions: 50 uM, 231 sol, in vitro
observable: isoTOP-ABPP reactivity ratio at lysine Q9NQC3_K1104

structure smiles string: COc1cc(CCC(=O)Oc2ccc([N+](=O)[O-])cc2[N+](=O)[O-])cc(OC)c1OC
reported measurement: 4.3
--
structure smiles string: O=C(CCc1coc2cc(F)ccc2c1=O)Oc1c(F)c(F)c(F)c(F)c1F
reported measurement: 5.3
--
structure smiles string: O=C(Oc1c(F)c(F)c(F)c(F)c1F)C1CCN(C(=O)OCc2ccccc2)CC1
reported measurement: 2.3
--
structure smiles string: CCn1cc(C(=O)Oc2c(F)c(F)c(F)c(F)c2F)c(=O)c2ccc(C)nc21
reported measurement: 1.0
--
structure smiles string: Cn1cc(CC(=O)Oc2ccc([N+](=O)[O-])cc2[N+](=O)[O-])c2ccccc21
reported measurement: 20.0
--
structure smiles string: O=C(CCc1cn(-c2ccccc2)nc1-c1ccccc1)Oc1ccc([N+](=O)[O-])cc1[N+](=O)[O-]
reported measurement: 15.6
--
structure smiles string: O=C(Oc1ccc([N+](=O)[O-])cc1[N+](=O)[O-])c1cc(C(F)(F)F)cc(C(F)(F)F)c1
reported measurement: 6.1

###

Target: KPNA2 Importin subunit alpha-2 (Homo sapiens)
Construct: isoTOP-ABPP experiments performed in cell lysates (in vitro); endogenous in cells; host or cells: soluble proteome of human cancer cell lines (MDA-MB-231, Ramos, Jurkat)
Experiment: competitive isoTOP-ABPP
Format: binding
Details: 50 uM_231_sol_in vitro
Experimental: In vitro covalent fragment treatment for isoTOP-ABPP. All compounds were made up as solutions in DMSO (100×) and were used at a final concentration of 50 μM for activated esters and 100 μM for guanidinylating agents. […] R value calculation and processing. The ratios of light and heavy MS1 peaks for each unique peptide were quantified with a CIMAGE software using default parameters (3 MS1 acquisitions per peak and signal to noise threshold set to 2.5). […]
// boundary case: isoTOP-ABPP ratio, lysine P52292_K459 equal to 1 maps to condition not met; strictly smaller maps to condition met

molecule: O=C(Oc1c(F)c(F)c(C(F)(F)F)c(F)c1F)c1cc(C(F)(F)F)cc(C(F)(F)F)c1
class assignment: condition not met

molecule: O=C(CCc1ccc2c(c1)OCO2)Oc1ccc([N+](=O)[O-])cc1[N+](=O)[O-]
class assignment: condition not met

molecule: NC(=O)c1cc(C(F)(F)F)cc(C(F)(F)F)c1 [fragment 51, reference compound]
class assignment: condition met

molecule: O=C(Oc1c(F)c(F)cc(F)c1F)c1cc(C(F)(F)F)cc(C(F)(F)F)c1
class assignment: condition not met

molecule: O=C(ON1C(=O)CCC1=O)c1cc(C(F)(F)F)cc(C(F)(F)F)c1
class assignment: condition not met

molecule: N#Cc1ccc(C(=O)Oc2ccc([N+](=O)[O-])cc2[N+](=O)[O-])cc1 [fragment 44, 2,4-Dinitrophenyl 4-cyanobenzoate]
class assignment: condition not met
